Item-by-item account of MIC
# System: Escherichia coli
# protocol description: Antimicrobial activity against Escherichia coli assessed as reduction in bacterial growth by agar dilution method
# Type: functional
assay endpoint: MIC

{"columns": ["compound", "assay endpoint", "measured result"],
 "data": [
  ["CCCCCCC1C([C@@H](O)C(=O)[C@H](O)CCC)C=C2C3(O)OC(=O)[C@]2(C)CC2=C(C(=O)OC2=O)C13 (stereo partly drawn)", "MIC", "> 50 µM"],
  ["CCCCCCC1C([C@@H](O)C(=O)[C@H](C)CCC)C=C2C3(OC)OC(=O)[C@]2(C)CC2=C(C(=O)OC2=O)C13 (stereo partly drawn)", "MIC", "> 50 µM"],
  ["O=C(O)c1cn(C2CC2)c2cc(N3CCNCC3)c(F)cc2c1=O [CIPROFLOXACIN]", "MIC", "25 µM"]
]}
